Measured values drawn from ChEMBL document CHEMBL5665443 for this set.

Molecular target: UniProt P78549
Sequence (whole entry): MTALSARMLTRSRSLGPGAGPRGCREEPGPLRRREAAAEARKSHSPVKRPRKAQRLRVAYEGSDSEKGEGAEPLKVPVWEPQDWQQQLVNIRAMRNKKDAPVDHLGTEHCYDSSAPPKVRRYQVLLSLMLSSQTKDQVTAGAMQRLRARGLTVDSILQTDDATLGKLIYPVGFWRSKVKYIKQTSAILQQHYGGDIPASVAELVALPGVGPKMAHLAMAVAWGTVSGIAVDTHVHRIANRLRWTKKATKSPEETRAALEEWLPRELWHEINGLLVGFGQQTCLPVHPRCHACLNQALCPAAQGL
Settings: Compound Concentration 10.0 uM, Hit No;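 further: enzyme assay tracking NTHL1 cutting and release of a quenched double-stranded DNA oligo substrate, read as fluorescence at 594 nm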
Description: Inhibition of NTHL1 by quantifying inhibition of NTHL1-mediated cleavage and dissociation of quenched duplex DNA oligonucleotides, measured as fluorescence at 594 nm.
result type: inhibition (%)
Could you give me the number in %? Just the number is fine.

Task item: Would you kindly share the measured inhibition for `COc1ccc2c(c1)O[C@H](c1ccc(OC)c(OC)c1)C[C@@H]2NC(=O)C1(c2ccc3c(c2)OC(F)(F)O3)CC1` ?
Reply: 3.97

Task item: Would you kindly share the measured inhibition for `COc1cc(OC2CCN(C(C)=O)CC2)ccc1C(=O)N1CCC(N2C(=O)OCc3ccccc32)CC1` ?
Reply: 24.5

Task item: Would you kindly share the measured inhibition for `CCNC(=O)NS(=O)(=O)c1sc(CC(C)C)cc1-c1ccc(Cn2c(-c3ccccc3)nc(OC)c2C=O)cc1` ?
Reply: 8.82

Task item: Would you kindly share the measured inhibition for O=C(NCCNCC(O)COc1ccc(O)cc1)N1CCOCC1 (stereo not given) ?
Reply: 8

Task item: Would you kindly share the measured inhibition for `CC[C@@H]1CN(C(=O)NCC(F)(F)F)C[C@@H]1c1cnc2cnc3[nH]ccc3n12` ?
Reply: 2.88

Task item: Would you kindly share the measured inhibition for `CN(C(=O)/C=C/c1ccoc1)[C@@H]1CC[C@@]2(O)[C@H]3Cc4ccc(O)c5c4[C@@]2(CCN3CC2CC2)[C@H]1O5` ?
Reply: 1.92

Task item: Would you kindly share the measured inhibition for `Nc1nc(Nc2ccccc2)nc2c1ncn2[C@@H]1O[C@H](CO)[C@@H](O)[C@H]1O` ?
Reply: 1.39

Task item: Would you kindly share the measured inhibition for `CC[C@H](NC(=O)c1c(C)c(-c2ccccc2)nc2ccccc12)c1ccccc1` ?
Reply: 9.25

Task item: Would you kindly share the measured inhibition for `COc1cc([N+](=O)[O-])ccc1NC(=O)c1ccccc1O` ?
Reply: -0.258

Task item: Would you kindly share the measured inhibition for `NCCc1cccs1` ?
Reply: 8.82

Task item: Would you kindly share the measured inhibition for CCOC(=O)C1Cc2ccccc2CN1C(=O)c1ccc(SC)s1 (stereo not given) ?
Reply: 1.34

Task item: Would you kindly share the measured inhibition for `Cc1ccccc1Oc1cc(-n2c(=O)cc(C(F)(F)F)[nH]c2=O)c2ccccc2c1Cl` ?
Reply: -1.29

Task item: Would you kindly share the measured inhibition for `O=c1ccc2c(OCCCCOc3ccccc3)c3ccoc3cc2o1` ?
Reply: 3.87

Task item: Would you kindly share the measured inhibition for `Nc1nc(NCc2ccccc2)nc(-c2cccc(CO)c2)n1` ?
Reply: -5.89

Task item: Would you kindly share the measured inhibition for `CNC(=O)[C@H]1O[C@@H](n2cnc3c(NCc4cccc(I)c4)ncnc32)[C@H](O)[C@@H]1O` ?
Reply: -2.73

Task item: Would you kindly share the measured inhibition for `N[C@@H](Cn1cc(F)c(=O)[nH]c1=O)C(=O)O` ?
Reply: 0.568

Task item: Would you kindly share the measured inhibition for `CC[C@H]1CN(c2nc(N)c(C(N)=O)nc2Cl)CCN1C1CCN(Cc2ccc(Cl)cc2)CC1` ?
Reply: 24.5

Task item: Would you kindly share the measured inhibition for `CN(C)C(=O)C(CCN1CCC(O)(c2ccc(Cl)cc2)CC1)(c1ccccc1)c1ccccc1` ?
Reply: 28.3

Task item: Would you kindly share the measured inhibition for `Cc1nc(N2CC[C@@H](O)C2)ncc1-c1cc(C(F)(F)F)cc2[nH]ncc12` ?
Reply: -5.89

Task item: Would you kindly share the measured inhibition for `CN1CCN(Cc2ccc(-c3cccc(C(=O)Nc4ccccc4CC(=O)O)c3)cc2)CC1` ?
Reply: -1.91
